inhibition reference
Target: Prostaglandin G/H synthase 2 (Homo sapiens) (UniProt P35354)
Sequence (P35354 whole entry): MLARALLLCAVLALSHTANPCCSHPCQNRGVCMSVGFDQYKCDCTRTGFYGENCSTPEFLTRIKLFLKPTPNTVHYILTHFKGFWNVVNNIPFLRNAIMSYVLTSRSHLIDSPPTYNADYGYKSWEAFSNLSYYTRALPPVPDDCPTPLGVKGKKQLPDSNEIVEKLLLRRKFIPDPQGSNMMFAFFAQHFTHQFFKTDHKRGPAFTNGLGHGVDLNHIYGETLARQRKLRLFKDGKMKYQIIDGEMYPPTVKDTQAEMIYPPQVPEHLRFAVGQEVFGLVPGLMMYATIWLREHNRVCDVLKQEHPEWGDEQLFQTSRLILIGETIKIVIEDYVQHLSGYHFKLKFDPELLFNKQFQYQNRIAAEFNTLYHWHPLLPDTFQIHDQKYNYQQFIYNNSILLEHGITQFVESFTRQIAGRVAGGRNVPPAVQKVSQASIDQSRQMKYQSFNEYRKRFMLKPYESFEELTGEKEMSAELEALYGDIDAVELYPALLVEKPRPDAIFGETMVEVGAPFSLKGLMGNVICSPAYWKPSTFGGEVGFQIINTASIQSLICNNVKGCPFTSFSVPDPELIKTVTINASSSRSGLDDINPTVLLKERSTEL
Details: Blood; at 10 µM
Description: Inhibition of Prostaglandin G/H synthase 2 (COX-2) in human whole blood at 10 uM
Test Readout: inhibition (%)

[[record]]
smiles_str = "CCOc1ccc(-c2c(Cl)ncn2-c2ccc(S(C)(=O)=O)cc2)cc1"
test_readout = "inhibition"
val = 100

[[record]]
smiles_str = "COc1cc(-c2c(Cl)ncn2-c2ccc(S(C)(=O)=O)cc2)ccc1F"
test_readout = "inhibition"
val = 92.6

[[record]]
smiles_str = "CCCc1ccc(-c2c(Cl)ncn2-c2ccc(S(C)(=O)=O)cc2)cc1"
test_readout = "inhibition"
val = 91.9

[[record]]
smiles_str = "COc1ccc(-c2c(Cl)ncn2-c2ccc(S(C)(=O)=O)cc2)cc1C"
test_readout = "inhibition"
val = 100

[[record]]
smiles_str = "CS(=O)(=O)c1ccc(-c2cnc(C(=O)c3ccccc3)n2-c2ccc(F)cc2)cc1"
test_readout = "inhibition"
val = 95

[[record]]
smiles_str = "Cc1ncn(-c2ccc(S(C)(=O)=O)cc2)c1-c1ccc(F)cc1"
test_readout = "inhibition"
val = 86.5

[[record]]
smiles_str = "NS(=O)(=O)c1ccc(-n2cnc(Cl)c2-c2ccc(Cl)nc2)cc1"
test_readout = "inhibition"
val = 97.6

[[record]]
smiles_str = "CS(=O)(=O)c1ccc(-n2cnc(Cl)c2-c2ccc(F)cc2)cc1"
test_readout = "inhibition"
val = 100


---

Test: Half life of compound was determined at 1 mg/kg intravenous administration in rat
Assay type: ADME, organism-based
Set-up: dose 1 mg/kg, route intravenous
Details: in vivo
Test Readout: half-life (h)

[[record]]
smiles_str = "NS(=O)(=O)c1ccc(-n2cnc(Cl)c2-c2ccc(F)cc2)cc1"
val = 17

[[record]]
smiles_str = "COc1ccc(-c2c(Cl)ncn2-c2ccc(S(C)(=O)=O)cc2)cc1Cl"
val = 3.6

[[record]]
smiles_str = "COc1cc(-c2c(Cl)ncn2-c2ccc(S(N)(=O)=O)cc2)ccc1F"
val = 3.8


---

As an illustration, consider measured pIC50 for molecules on Prostaglandin G/H synthase 1 (Homo sapiens).
pIC50: −log10 of the molar value.
Test Readout: pIC50

[[record]]
smiles_str = "COc1ccc(-c2c(Cl)ncn2-c2ccc(S(C)(=O)=O)cc2)cc1F"
test_readout = "pIC50"
val = "< 5.00"

[[record]]
smiles_str = "Cc1nc(Cl)c(-c2ccc(F)cc2)n1-c1ccc(S(C)(=O)=O)cc1"
test_readout = "pIC50"
val = "< 5.00"

[[record]]
smiles_str = "CN(C)c1ccc(-c2c(Cl)ncn2-c2ccc(S(C)(=O)=O)cc2)cc1Cl"
test_readout = "pIC50"
val = 5.72

[[record]]
smiles_str = "CS(=O)(=O)c1ccc(-c2c(Br)ncn2-c2ccc(F)cc2)cc1"
test_readout = "pIC50"
val = "< 5.00"

[[record]]
smiles_str = "CCOc1ccc(-c2c(Cl)ncn2-c2ccc(S(N)(=O)=O)cc2)cc1F"
test_readout = "pIC50"
val = 4.12

[[record]]
smiles_str = "CS(=O)(=O)c1ccc(-n2cnc(Cl)c2-c2cccc(F)c2)cc1"
test_readout = "pIC50"
val = "< 5.00"

[[record]]
smiles_str = "CCCOc1ccc(-c2c(Cl)ncn2-c2ccc(S(C)(=O)=O)cc2)cc1"
test_readout = "pIC50"
val = "< 5.00"

[[record]]
smiles_str = "NS(=O)(=O)c1ccc(-n2cnc(Cl)c2-c2ccc(F)cc2)cc1"
test_readout = "pIC50"
val = 5.51

[[record]]
smiles_str = "CS(=O)(=O)c1ccc(-c2c(Cl)nc(Cl)n2-c2ccc(F)cc2)cc1"
test_readout = "pIC50"
val = "< 5.00"

[[record]]
smiles_str = "Cc1ccc(-c2c(Cl)ncn2-c2ccc(S(N)(=O)=O)cc2)cc1"
test_readout = "pIC50"
val = 5.57

[[record]]
smiles_str = "CS(=O)(=O)c1ccc(-n2cnc(Cl)c2-c2cc(F)cc(F)c2)cc1"
test_readout = "pIC50"
val = "< 5.00"

[[record]]
smiles_str = "CS(=O)(=O)c1ccc(-n2cnc(Cl)c2-c2ccc(F)cc2)cc1"
test_readout = "pIC50"
val = "< 5.00"

[[record]]
smiles_str = "CCOc1ccc(-c2c(Cl)ncn2-c2ccc(S(C)(=O)=O)cc2)cc1Cl"
test_readout = "pIC50"
val = "< 5.00"

[[record]]
smiles_str = "CS(=O)(=O)c1ccc(-n2cnc(Cl)c2-c2ccc(N)cc2)cc1"
test_readout = "pIC50"
val = "< 5.00"

[[record]]
smiles_str = "COc1ccc(-c2c(Cl)ncn2-c2ccc(S(N)(=O)=O)cc2)cc1Cl"
test_readout = "pIC50"
val = 5.92

[[record]]
smiles_str = "CS(=O)(=O)c1ccc(-n2cnc(Cl)c2-c2ccc3c(c2)CCO3)cc1"
test_readout = "pIC50"
val = 6.96

[[record]]
smiles_str = "CS(=O)(=O)c1ccc(-n2cnc(Cc3ccccc3)c2-c2ccc(F)cc2)cc1"
test_readout = "pIC50"
val = "< 5.00"

[[record]]
smiles_str = "CC(C)c1ccc(-c2c(Cl)ncn2-c2ccc(S(C)(=O)=O)cc2)cc1"
test_readout = "pIC50"
val = "< 5.00"

[[record]]
smiles_str = "CS(=O)(=O)c1ccc(-n2cnc(Cl)c2-c2cccnc2)cc1"
test_readout = "pIC50"
val = "< 5.00"

[[record]]
smiles_str = "CCc1ncn(-c2ccc(S(C)(=O)=O)cc2)c1-c1ccc(F)cc1"
test_readout = "pIC50"
val = "< 5.00"

[[record]]
smiles_str = "CCCc1ccc(-c2c(Cl)ncn2-c2ccc(S(C)(=O)=O)cc2)cc1"
test_readout = "pIC50"
val = "< 5.00"

[[record]]
smiles_str = "Cc1ccc(-c2c(Cl)ncn2-c2ccc(S(C)(=O)=O)cc2)cc1F"
test_readout = "pIC50"
val = "< 5.00"


---

As an illustration, consider measured IC50 for molecules on Prostaglandin G/H synthase 1 (Homo sapiens, UniProt P23219).
Sequence (P23219 whole entry): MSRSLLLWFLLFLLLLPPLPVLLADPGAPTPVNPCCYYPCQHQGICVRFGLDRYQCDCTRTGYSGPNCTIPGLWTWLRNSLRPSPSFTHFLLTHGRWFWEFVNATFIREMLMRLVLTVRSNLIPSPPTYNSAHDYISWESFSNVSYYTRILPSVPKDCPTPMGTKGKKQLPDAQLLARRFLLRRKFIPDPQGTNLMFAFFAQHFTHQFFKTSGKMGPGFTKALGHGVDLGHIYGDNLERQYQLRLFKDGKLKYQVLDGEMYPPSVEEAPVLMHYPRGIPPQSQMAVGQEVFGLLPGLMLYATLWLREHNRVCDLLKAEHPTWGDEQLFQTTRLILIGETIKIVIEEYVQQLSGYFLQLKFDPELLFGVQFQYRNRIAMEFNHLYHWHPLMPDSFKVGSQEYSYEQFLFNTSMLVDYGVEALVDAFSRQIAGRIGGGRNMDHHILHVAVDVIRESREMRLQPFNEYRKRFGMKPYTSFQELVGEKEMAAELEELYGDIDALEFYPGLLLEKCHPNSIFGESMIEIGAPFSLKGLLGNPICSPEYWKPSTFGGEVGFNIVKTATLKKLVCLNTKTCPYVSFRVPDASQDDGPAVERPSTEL
Test Readout: IC50

[[record]]
smiles_str = "Cc1ncn(-c2ccc(S(C)(=O)=O)cc2)c1-c1ccc(F)cc1"
test_readout = "IC50"
val = "> 10 µM"

[[record]]
smiles_str = "Cc1ncc(-c2ccc(S(C)(=O)=O)cc2)n1-c1ccc(F)cc1"
test_readout = "IC50"
val = "> 10 µM"

[[record]]
smiles_str = "CS(=O)(=O)c1ccc(-n2cnc(Cl)c2-c2ccc3c(c2)OCO3)cc1"
test_readout = "IC50"
val = "> 10 µM"

[[record]]
smiles_str = "CS(=O)(=O)c1ccc(-n2c(-c3ccc(F)cc3)cnc2C(=O)c2ccccc2)cc1"
test_readout = "IC50"
val = "> 10 µM"

[[record]]
smiles_str = "CS(=O)(=O)c1ccc(-n2c(-c3ccc(F)cc3)cnc2Cl)cc1"
test_readout = "IC50"
val = "> 10 µM"

[[record]]
smiles_str = "CS(=O)(=O)c1ccc(-n2c(Cl)nc(Cl)c2-c2ccc(F)cc2)cc1"
test_readout = "IC50"
val = "> 10 µM"

[[record]]
smiles_str = "CCOc1ccc(-c2c(Cl)ncn2-c2ccc(S(N)(=O)=O)cc2)cc1"
test_readout = "IC50"
val = "2.2 µM"

[[record]]
smiles_str = "Cc1cc(-c2c(Cl)ncn2-c2ccc(S(C)(=O)=O)cc2)ccc1Cl"
test_readout = "IC50"
val = "4 µM"

[[record]]
smiles_str = "CCOc1ccc(-c2c(Cl)ncn2-c2ccc(S(C)(=O)=O)cc2)cc1F"
test_readout = "IC50"
val = "> 10 µM"

[[record]]
smiles_str = "CSc1ccc(-c2c(Cl)ncn2-c2ccc(S(C)(=O)=O)cc2)cc1"
test_readout = "IC50"
val = "0.9 µM"

[[record]]
smiles_str = "CS(=O)(=O)c1ccc(-c2cnc(Br)n2-c2ccc(F)cc2)cc1"
test_readout = "IC50"
val = "> 10 µM"

[[record]]
smiles_str = "CS(=O)(=O)c1ccc(-c2cnc(CO)n2-c2ccc(F)cc2)cc1"
test_readout = "IC50"
val = "> 10 µM"

[[record]]
smiles_str = "CS(=O)(=O)c1ccc(-n2cnc(Cl)c2-c2ccccc2)cc1"
test_readout = "IC50"
val = "> 10 µM"


---

Target: Prostaglandin G/H synthase 1 (Homo sapiens)
IC50 reference
Test Readout: IC50

[[record]]
smiles_str = "COC(=O)c1ncc(-c2ccc(S(C)(=O)=O)cc2)n1-c1ccc(F)cc1"
val = "> 10 µM"

[[record]]
smiles_str = "COc1cc(-c2c(Cl)ncn2-c2ccc(S(N)(=O)=O)cc2)ccc1F"
val = "> 1 µM"

[[record]]
smiles_str = "CS(=O)(=O)c1ccc(-n2cnc(Cl)c2-c2ccncc2)cc1"
val = "> 10 µM"

[[record]]
smiles_str = "C=CCc1ncn(-c2ccc(S(C)(=O)=O)cc2)c1-c1ccc(F)cc1"
val = "> 10 µM"

[[record]]
smiles_str = "CCOc1ccc(-c2c(Cl)ncn2-c2ccc(S(C)(=O)=O)cc2)cc1"
val = "> 10 µM"

[[record]]
smiles_str = "COc1c(Cl)cc(-c2c(Cl)ncn2-c2ccc(S(C)(=O)=O)cc2)cc1Cl"
val = "> 10 µM"

[[record]]
smiles_str = "COc1ccc(-c2c(Cl)ncn2-c2ccc(S(C)(=O)=O)cc2)cc1Cl"
val = "> 10 µM"

[[record]]
smiles_str = "COc1ccc(-c2c(Cl)ncn2-c2ccc(S(N)(=O)=O)cc2)cc1F"
val = "3.3 µM"

[[record]]
smiles_str = "CS(=O)(=O)c1ccc(-c2cncn2-c2ccc(F)cc2)cc1"
val = "> 10 µM"

[[record]]
smiles_str = "COc1ccc(-c2c(Cl)ncn2-c2ccc(S(C)(=O)=O)cc2)cc1C"
val = "> 10 µM"

[[record]]
smiles_str = "COc1ccc(-c2c(Cl)ncn2-c2ccc(S(C)(=O)=O)cc2)c(F)c1"
val = "0.11 µM"

[[record]]
smiles_str = "CS(=O)(=O)c1ccc(-c2cnc(Cl)n2-c2ccc(F)cc2)cc1"
val = "> 10 µM"

[[record]]
smiles_str = "CS(=O)(=O)c1ccc(-c2cnc(C#N)n2-c2ccc(F)cc2)cc1"
val = "> 10 µM"

[[record]]
smiles_str = "COc1cc(-c2c(Cl)ncn2-c2ccc(S(C)(=O)=O)cc2)ccc1C"
val = "> 10 µM"

[[record]]
smiles_str = "CC(C)Oc1ccc(-c2c(Cl)ncn2-c2ccc(S(C)(=O)=O)cc2)cc1"
val = "> 10 µM"

[[record]]
smiles_str = "COc1ccc(-c2c(Cl)ncn2-c2ccc(S(C)(=O)=O)cc2)cc1"
val = "1.3 µM"

[[record]]
smiles_str = "CS(=O)(=O)c1ccc(-n2cncc2-c2ccc(F)cc2)cc1"
val = "> 10 µM"

[[record]]
smiles_str = "CCSc1ccc(-c2c(Cl)ncn2-c2ccc(S(C)(=O)=O)cc2)cc1"
val = "> 10 µM"

[[record]]
smiles_str = "CS(=O)(=O)c1ccc(-c2cnc(C(=O)c3ccccc3)n2-c2ccc(F)cc2)cc1"
val = "> 10 µM"

[[record]]
smiles_str = "Cc1nc(Cl)n(-c2ccc(F)cc2)c1-c1ccc(S(C)(=O)=O)cc1"
val = "> 10 µM"

[[record]]
smiles_str = "COc1cc(-c2c(Cl)ncn2-c2ccc(S(C)(=O)=O)cc2)ccc1F"
val = "> 10 µM"

